target: Hepatocyte growth factor receptor (Homo sapiens, UniProt P08581)
Sequence (P08581 whole entry): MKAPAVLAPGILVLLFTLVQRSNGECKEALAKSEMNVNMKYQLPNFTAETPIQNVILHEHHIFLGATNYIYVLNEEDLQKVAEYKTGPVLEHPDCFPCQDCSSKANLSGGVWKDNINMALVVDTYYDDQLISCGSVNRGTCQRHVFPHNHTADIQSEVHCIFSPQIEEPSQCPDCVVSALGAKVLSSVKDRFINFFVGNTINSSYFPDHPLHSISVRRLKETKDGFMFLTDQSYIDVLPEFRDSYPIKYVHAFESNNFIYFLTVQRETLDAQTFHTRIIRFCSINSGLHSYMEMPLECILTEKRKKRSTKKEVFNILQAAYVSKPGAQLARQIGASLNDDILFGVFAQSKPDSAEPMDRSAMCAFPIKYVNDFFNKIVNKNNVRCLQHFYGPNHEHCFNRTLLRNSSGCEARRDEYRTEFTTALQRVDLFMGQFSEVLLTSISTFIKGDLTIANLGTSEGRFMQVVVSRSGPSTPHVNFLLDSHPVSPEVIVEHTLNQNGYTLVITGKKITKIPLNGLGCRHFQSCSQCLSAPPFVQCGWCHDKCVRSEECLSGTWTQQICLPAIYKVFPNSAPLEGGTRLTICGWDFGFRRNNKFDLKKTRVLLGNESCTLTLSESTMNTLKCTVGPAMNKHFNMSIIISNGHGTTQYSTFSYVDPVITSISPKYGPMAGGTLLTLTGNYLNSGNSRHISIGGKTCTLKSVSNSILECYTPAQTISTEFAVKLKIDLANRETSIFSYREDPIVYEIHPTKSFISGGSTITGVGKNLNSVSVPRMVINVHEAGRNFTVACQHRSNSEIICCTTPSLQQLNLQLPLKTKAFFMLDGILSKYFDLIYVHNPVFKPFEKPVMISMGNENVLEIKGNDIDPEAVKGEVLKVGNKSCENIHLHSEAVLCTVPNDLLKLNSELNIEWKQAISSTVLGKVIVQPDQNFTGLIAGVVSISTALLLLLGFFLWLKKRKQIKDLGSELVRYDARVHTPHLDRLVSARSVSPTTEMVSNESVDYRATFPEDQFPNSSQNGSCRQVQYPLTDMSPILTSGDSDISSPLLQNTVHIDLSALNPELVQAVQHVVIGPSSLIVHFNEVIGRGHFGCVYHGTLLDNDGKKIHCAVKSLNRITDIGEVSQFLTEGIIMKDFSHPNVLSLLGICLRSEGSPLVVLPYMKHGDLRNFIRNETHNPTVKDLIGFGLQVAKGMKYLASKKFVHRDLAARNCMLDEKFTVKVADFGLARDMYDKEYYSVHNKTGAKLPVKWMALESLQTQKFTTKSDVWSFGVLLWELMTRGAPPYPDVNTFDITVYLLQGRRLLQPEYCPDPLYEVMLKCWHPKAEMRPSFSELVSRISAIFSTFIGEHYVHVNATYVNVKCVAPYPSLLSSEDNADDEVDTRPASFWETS
ENDPOINT LABEL: IC50 (µM)
Please state the figure in µM; there is no need to write the unit.

Data request: Look at this compound and give its reported IC50. CN1C(=O)[C@@H](N2CCc3cn(CC4CCS(=O)(=O)CC4)nc3C2=O)COc2ccccc21 [TP-030n]
Data returned: 1

====

For Cyclin-dependent kinase 6 (Homo sapiens, UniProt Q00534), measured pIC50 is reported for the entries below.
On this scale, pIC50 is minus log10 of a concentration expressed in M (mol/L).

Data request: Record request: pIC50 value, item CN1C(=O)[C@@H](N2CCc3cn(Cc4ccccc4)nc3C2=O)COc2ccccc21 [TP-030-1]
Data returned: 6.00

Data request: And then CN1C(=O)[C@@H](N2CCc3cn(CC4CCS(=O)(=O)CC4)nc3C2=O)COc2ccccc21 [TP-030n] , what is it?
Data returned: 6.00
